The origin of these recorded values is ChEMBL document CHEMBL5523667.

- SYSTEM: Falcipain-3 (Plasmodium falciparum 3D7, UniProt Q8IIL0)
- Sequence (Q8IIL0 243-492 limits assumed): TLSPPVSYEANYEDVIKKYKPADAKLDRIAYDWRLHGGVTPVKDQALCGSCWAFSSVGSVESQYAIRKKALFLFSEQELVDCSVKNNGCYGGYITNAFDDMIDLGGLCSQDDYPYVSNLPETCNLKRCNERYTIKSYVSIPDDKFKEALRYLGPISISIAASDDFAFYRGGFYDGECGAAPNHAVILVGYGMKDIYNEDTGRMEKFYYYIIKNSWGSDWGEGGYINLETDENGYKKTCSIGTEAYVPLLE
- RUN_DESCRIPTION: Binding affinity to N-terminal 6His-tagged recombinant Plasmodium falciparum FP3 expressed in Escherichia coli M15 assessed as dissociation constant incubated for 15 mins in presence of lysine reactive dye by microscale thermophoretic analysis
pKd: −log10 of the molar value.

MOLECULE | pKd
O=C(Cn1cc(CN2CCN(c3ccnc4cc(Cl)ccc34)CC2)nn1)Nc1cccc([N+](=O)[O-])c1 | 4.26

---

- SYSTEM: Falcipain 2 (Plasmodium falciparum, UniProt Q9N6S8)
- Sequence (Q9N6S8 whole entry): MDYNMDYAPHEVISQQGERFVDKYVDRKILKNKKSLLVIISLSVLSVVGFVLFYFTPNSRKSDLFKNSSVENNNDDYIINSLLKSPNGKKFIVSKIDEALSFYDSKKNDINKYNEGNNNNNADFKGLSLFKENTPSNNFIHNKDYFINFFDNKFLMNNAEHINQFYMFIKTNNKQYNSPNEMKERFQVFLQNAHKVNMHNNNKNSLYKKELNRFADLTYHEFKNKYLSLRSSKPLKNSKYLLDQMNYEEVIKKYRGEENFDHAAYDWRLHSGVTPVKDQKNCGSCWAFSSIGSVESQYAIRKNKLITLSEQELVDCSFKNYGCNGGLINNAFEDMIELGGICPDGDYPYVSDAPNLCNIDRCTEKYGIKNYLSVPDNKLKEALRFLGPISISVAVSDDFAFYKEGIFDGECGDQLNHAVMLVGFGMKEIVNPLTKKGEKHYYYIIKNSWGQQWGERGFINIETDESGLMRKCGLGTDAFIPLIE
- RUN_DESCRIPTION: Competitive inhibition of N-terminal 6His-tagged recombinant Plasmodium falciparum FP2 expressed in Escherichia coli M15 assessed as inhibition constant using Z-Phe-Arg-AMC as substrate measured after 30 mins by microplate reader analysis

MOLECULE | UNIT_ANNOTATION | Ki
O=C(Cn1cc(CN2CCN(c3ccnc4cc(Cl)ccc34)CC2)nn1)Nc1cccc([N+](=O)[O-])c1 | nM | 527

---

- RUN_DESCRIPTION: Cytotoxicity against CHO cells assessed as reduction in cell viability by MTT assay
- Format: toxicity, cell-based
- CONDITION_LABEL: Chinese hamster (Cricetulus griseus)
Consider the cut-off 100 µM. If the recorded IC50 is strictly smaller, the label is Satisfied; if not, the label is Not satisfied.

MOLECULE | ASSIGNED_CLASS
Cc1ccc(NC(=O)Cn2cc(CN3CCN(c4ccnc5cc(Cl)ccc45)CC3)nn2)cc1 | Satisfied
O=C(Cn1cc(CN2CCN(c3ccnc4cc(Cl)ccc34)CC2)nn1)Nc1ccccc1Cl | Not satisfied
O=C(Cn1cc(CN2CCN(c3ccnc4cc(Cl)ccc34)CC2)nn1)Nc1cccc(F)c1 | Not satisfied
O=C(Cn1cc(CN2CCN(c3ccnc4cc(Cl)ccc34)CC2)nn1)Nc1ccc(F)cc1 | Not satisfied
O=C(Cn1cc(CN2CCN(c3ccnc4cc(Cl)ccc34)CC2)nn1)Nc1cccc(Cl)c1 | Not satisfied
O=C(Cn1cc(CN2CCN(c3ccnc4cc(Cl)ccc34)CC2)nn1)Nc1cccc([N+](=O)[O-])c1 | Not satisfied

---

- Tested on: Plasmodium falciparum
- RUN_DESCRIPTION: Antimalarial activity against ring stage chloroquine-sensitive Plasmodium falciparum 3D7 assessed as growth inhibition incubated with compound for 6 hrs and measured 72 hrs post invasion by SYBR Green dye based analysis
- Format: functional, organism-based
OBSERVABLE: IC50 (µM)

MOLECULE | OBSERVABLE | UNIT_ANNOTATION | RESULT_NUMBER
O=C(Cn1cc(CN2CCN(c3ccnc4cc(Cl)ccc34)CC2)nn1)Nc1cccc([N+](=O)[O-])c1 | IC50 | µM | 10.2

---

- Tested on: Hemozoin
- RUN_DESCRIPTION: Inhibition of beta-hematin formation in Plasmodium falciparum by UV-visible SpectraMax P340 plate reader analysis
pIC50: −log10 of the molar value.
Reported pIC50 by item:

COMPOUND | pIC50
O=C(Cn1cc(CN2CCN(c3ccnc4cc(Cl)ccc34)CC2)nn1)Nc1ccccc1Cl | 4.72
O=C(Cn1cc(CN2CCN(c3ccnc4cc(Cl)ccc34)CC2)nn1)Nc1cccc(F)c1 | 4.97
O=C(Cn1cc(CN2CCN(c3ccnc4cc(Cl)ccc34)CC2)nn1)Nc1ccc(F)cc1 | 4.69
Cc1ccccc1NC(=O)Cn1cc(CN2CCN(c3ccnc4cc(Cl)ccc34)CC2)nn1 | 4.76
COc1ccc(NC(=O)Cn2cc(CN3CCN(c4ccnc5cc(Cl)ccc45)CC3)nn2)cc1 | 4.71
CCN(CC)CCCC(C)Nc1ccnc2cc(Cl)ccc12 (stereo not given) | 4.63
O=C(Cn1cc(CN2CCN(c3ccnc4cc(Cl)ccc34)CC2)nn1)Nc1ccccc1[N+](=O)[O-] | 4.67
O=C(Cn1cc(CN2CCN(c3ccnc4cc(Cl)ccc34)CC2)nn1)Nc1ccc([N+](=O)[O-])cc1 | 4.54
Cc1ccc(NC(=O)Cn2cc(CN3CCN(c4ccnc5cc(Cl)ccc45)CC3)nn2)cc1 | 4.73
O=C(Cn1cc(CN2CCN(c3ccnc4cc(Cl)ccc34)CC2)nn1)Nc1ccccc1 | 4.70
COc1cccc(NC(=O)Cn2cc(CN3CCN(c4ccnc5cc(Cl)ccc45)CC3)nn2)c1 | 4.76
O=C(Cn1cc(CN2CCN(c3ccnc4cc(Cl)ccc34)CC2)nn1)Nc1cccc([N+](=O)[O-])c1 | 4.70
COC(=O)c1ccc(NC(=O)Cn2cc(CN3CCN(c4ccnc5cc(Cl)ccc45)CC3)nn2)cc1 | 4.90
Cc1cccc(NC(=O)Cn2cc(CN3CCN(c4ccnc5cc(Cl)ccc45)CC3)nn2)c1 | 4.76
O=C(Cn1cc(CN2CCN(c3ccnc4cc(Cl)ccc34)CC2)nn1)Nc1cccc(Cl)c1 | 4.81
O=C(Cn1cc(CN2CCN(c3ccnc4cc(Cl)ccc34)CC2)nn1)Nc1ccc(Cl)cc1 | 5.08
COc1ccccc1NC(=O)Cn1cc(CN2CCN(c3ccnc4cc(Cl)ccc34)CC2)nn1 | 4.85
CCN(CC)Cc1cc(Nc2ccnc3cc(Cl)ccc23)ccc1O | 4.96
O=C(Cn1cc(CN2CCN(c3ccnc4cc(Cl)ccc34)CC2)nn1)Nc1ccc(Br)cc1 | 4.71
O=C(Cn1cc(CN2CCN(c3ccnc4cc(Cl)ccc34)CC2)nn1)Nc1ccccc1F | 4.67
